# assay_overview: Solubility in media with different pH values
# Format: physicochemical
# run_conditions: phosphate buffer, 37 °C, pH 7.4, aqueous buffer, thermodynamic from solid, phosphate buffer, shaken 24 h, read-out: Solubility pH 7.4
Structures can show the parent of a compound that is named as a salt.
measured_endpoint: solubility at 24 h (µg/mL)
The answer is to be given in µg/mL; state only the numeric part.

GET /value?item= CN(C)C(=O)N[C@H]1CC[C@H](CCN2CCN(c3cccc(Cl)c3Cl)CC2)CC1 [cariprazine hydrochloride, reference compound] &field=solubility at 24 h returns 2.82

* * *

# assay_overview: Solubility in media with different pH values
# Format: physicochemical
# run_conditions: phosphate buffer, 37 °C, pH 7, aqueous buffer, thermodynamic from solid, phosphate buffer, shaken 24 h, read-out: Solubility pH 7
Where a name gives a salt, the structure may show the parent alone.
measured_endpoint: solubility at 24 h (µg/mL)
The answer is to be given in µg/mL; state only the numeric part.

GET /value?item= CN(C)C(=O)N[C@H]1CC[C@H](CCN2CCN(c3cccc(Cl)c3Cl)CC2)CC1 [cariprazine hydrochloride, reference compound] &field=solubility at 24 h returns 9.41
